Reported Activity values are given for each entry in this list.
system: Mus musculus; assay: Toxicity in sc implanted mouse L1210 cells allografted C3H/DBA2 F1 hybrid hybrid mouse assessed as optimum dose required to increase life span treated ip after 24 hrs after tumor inoculation and continued for 5 days; type: organism-based; details: in vivo
Report only the number, with the unit mg/kg understood.

Would you please look over these solved cases?
>  <compound>
Cc1cc(NS(C)(=O)=O)ccc1Nc1c2ccccc2nc2c(OCC(O)CO)cccc12.Cl (configuration not stated)

>  <targetEntity>
Mus musculus

>  <unitString>
mg/kg

>  <readoutValue>
100

$$$$
>  <compound>
COc1cc(NS(C)(=O)=O)ccc1Nc1c2ccccc2nc2c(OCCO)cccc12.Cl

>  <targetEntity>
Mus musculus

>  <unitString>
mg/kg

>  <readoutValue>
5

$$$$
>  <compound>
COc1cc(NS(C)(=O)=O)ccc1Nc1c2ccccc2nc2c(C(=O)N[C@H]3[C@@H](OC)O[C@H](CO)[C@@H](O)[C@@H]3O)cccc12.Cl

>  <targetEntity>
Mus musculus

>  <unitString>
mg/kg

>  <readoutValue>
180

$$$$
>  <compound>
Br.COc1cc(NS(C)(=O)=O)ccc1Nc1c2ccccc2nc2cc(CCC(N)=O)ccc12

>  <targetEntity>
Mus musculus

>  <unitString>
mg/kg

>  <readoutValue>
125

$$$$
>  <compound>
COc1cc(NS(C)(=O)=O)ccc1Nc1c2ccccc2nc2c(C(=O)NCC(O)CO)cccc12.Cl (configuration not stated)

>  <targetEntity>
Mus musculus

>  <unitString>
mg/kg

>  <readoutValue>
92

$$$$

Please turn your attention to the following entry.
Name the value of Activity reported for CS(=O)(=O)Nc1ccc(Nc2c3ccccc3nc3ccccc23)cc1 when tested on Mus musculus. 45

* * *

Reported Activity values are given for each entry in this list.
test system: Mus musculus; assay: Toxicity in sc implanted mouse L1210 cells allografted C3H/DBA2 F1 hybrid hybrid mouse assessed as optimum dose required to increase life span treated ip after 24 hrs after tumor inoculation and continued for 5 days; type: organism-based; conditions: in vivo
Report only the number, with the unit mg/kg understood.

Report Activity for CN(C)C(=O)CCS(=O)(=O)Nc1ccc(Nc2c3ccccc3nc3ccccc23)cc1.Cl 150

Report Activity for CCCS(=O)(=O)Nc1ccc(Nc2c3ccccc3nc3c(C(=O)N[C@H]4[C@@H](OC)O[C@H](CO)[C@@H](O)[C@@H]4O)cccc23)c(OC)c1.Cl 400

Report Activity for COc1ccc(Nc2c3ccccc3nc3cc([N+](=O)[O-])ccc23)cc1.Cl 90

Report Activity for CS(=O)(=O)NCCS(=O)(=O)Nc1ccc(Nc2c3ccccc3nc3ccccc23)cc1.Cl 110

Report Activity for CNC(=O)Nc1ccc(Nc2c3ccccc3nc3ccccc23)cc1 60
